Quick list: melting point per entry.

| Smiles Structure | melting point |
| --- | --- |
| Cc1ccc(C[C@@H]2CN(C/C=C\c3cccnc3)CCN2C(=O)c2cc(C(F)(F)F)cc(C(F)(F)F)c2)cc1O.Cl.Cl | 85 to 130 °C |
| Cl.Cl.O=C(c1cc(C(F)(F)F)cc(C(F)(F)F)c1)N1CCN(CCN2CCC[C@H]2CO)C[C@H]1Cc1ccc(C(F)(F)F)cc1 | 221 to 224 °C |
| COC[C@@H]1CN(CCN2CCN(C(=O)c3cc(C(F)(F)F)cc(C(F)(F)F)c3)[C@H](Cc3ccc(F)c(C)c3)C2)CCO1.Cl.Cl | 151 to 156 °C |
| CN(C)c1cc(C(=O)N2CCN(CCN3CCc4ncccc4C3)C[C@H]2Cc2ccc(Cl)cc2)cc(C(F)(F)F)c1.Cl.Cl.Cl | 209 to 214 °C |
| CNc1noc(CN2CCN(C(=O)c3cc(C(F)(F)F)cc(C(F)(F)F)c3)[C@H](Cc3ccc(C)c(O)c3)C2)n1.Cl.Cl | 145 to 160 °C |
| Cc1ccc(C[C@@H]2CN(Cc3cccnc3)CCN2C(=O)c2cc(C(F)(F)F)cc(C(F)(F)F)c2)cc1O.Cl.Cl | 110 to 130 °C |
| COC[C@@H]1CN(CCN2CCN(C(=O)c3cc(OC)cc(C(F)(F)F)c3)[C@H](Cc3ccc(F)cc3)C2)CCO1.Cl.Cl | 109.5 to 119.2 °C |
| COC[C@@H]1CN(CCN2CCN(C(=O)c3cc(F)cc(C(F)(F)F)c3)[C@H](Cc3ccc(C(F)(F)F)cc3)C2)CCO1.Cl.Cl | 173 to 176 °C |
| C[C@@H]1CN(CCN2CCN(C(=O)c3cc(N(C)C)cc(C(F)(F)F)c3)[C@H](Cc3ccc(Cl)cc3)C2)C[C@H](C)O1.Cl.Cl | 148.2 to 153.3 °C |

* * *

Quick list: melting point per entry.

| Compound | melting point |
| --- | --- |
| Cc1ccc(CC2CN(C/C=C/c3cccnc3)CCN2C(=O)c2cc(C(F)(F)F)cc(C(F)(F)F)c2)cc1O.Cl.Cl (stereo not drawn) | 60 to 80 °C |
| COC[C@@H]1CN(CCN2CCN(C(=O)c3cc(C(F)(F)F)cc(C(F)(F)F)c3)[C@H](Cc3ccc(C)c(N4CCCC4)c3)C2)CCO1.Cl.Cl.Cl | 160 to 165 °C |
| COc1cc(C(=O)N2CCN(CCCc3cccnc3)C[C@H]2Cc2ccc(F)cc2)cc(C(F)(F)F)c1.Cl.Cl | 111.5 to 118.3 °C |
